molecular target: PIM3 (Homo sapiens); assay: KINOMEscan competition binding assay (Kd); settings: competition binding, run in duplicate; read-out: Kd PIM3
pKd: −log10 of the molar value.
parameter.measured: pKd

See these solved cases before continuing.
- compound: "O=C1NC(=O)c2c1c1c3cccc(O)c3[nH]c1c1[nH]c3c(O)cccc3c21 [Compound 123]"
  pKd: 8.19
- compound: "O=C1NC(=O)c2c1c1c([nH]c3cccc(F)c31)c1[nH]c3cccc(F)c3c21 [Compound 128]"
  pKd: 7.62
- compound: "O=C1NC(=O)c2c1c1c3cccc(F)c3[nH]c1c1[nH]c3c(F)cccc3c21 [Compound 131]"
  pKd: 6.89

a = O=C1NC(=O)c2c1c1c3ccc(O)cc3[nH]c1c1[nH]c3cc(O)ccc3c21 [Compound 122]
b = O=C1NC(=O)c2c1c1c3ccc(F)cc3[nH]c1c1[nH]c3cc(F)ccc3c21 [Compound 130]
Asked: Of a and b , which shows the smaller pKd value? API: response body contains the label of the selected item.
Given back: b

---

target: PIM1 (Homo sapiens); experiment: KINOMEscan competition binding assay (Kd); settings: text value printed in μM; read-out: Kd for PIM1
parameter.measured: Kd (µM)
Numeric only. Scale: µM

Asked: Could you please provide reported Kd for O=C1NC(=O)c2c1c1c3cc(F)ccc3[nH]c1c1[nH]c3ccc(F)cc3c21 [Compound 129, 3,9-difluoro-arcyriaflavin A] ? Thanks!
Given back: 2.5

---

Reported IC50 for target or system PIM2 (Homo sapiens, UniProt Q9P1W9), by entry.
parameter.measured: IC50 (nM)

- compound: "O=C1NC(=O)c2c1c1c3ccccc3[nH]c1c1[nH]c3ccccc3c21 [Arcyriaflavin A, reference compound]"
  measured.on: "PIM2 (Homo sapiens, UniProt Q9P1W9)"
  IC50 [nM]: 21

I = O=C1NC(=O)c2c1c1c3ccccc3[nH]c1c1c2c2ccccc2n1CCN1CCOCC1 [Compound 3]
II = O=C1NC(=O)c2c1c1c3cccc(O)c3[nH]c1c1[nH]c3c(O)cccc3c21 [Compound 123]
III = CN(C)C[C@@H]1CCn2cc(c3ccccc32)C2=C(C(=O)NC2=O)c2cn(c3ccccc23)CCO1 [Ruboxistaurin, ruboxistaurin, reference compound]
Asked: // ascending sort on recorded IC50 Your task in answering is to list the labels in the requested order.
Given back: II, I, III
(II: 55 nM, I: 138 nM, III: 7650 nM)

---

pIC50: −log10 of the molar value.
Entries with reported pIC50 on UniProtKB Q86V86
parameter.measured: pIC50

- compound: "O=C1NC(=O)c2c1c1c3ccccc3[nH]c1c1[nH]c3ccccc3c21 [Arcyriaflavin A, reference compound]"
  parameter.measured: "pIC50"
  value.measured: 9.52

1 = CN(C)C[C@@H]1CCn2cc(c3ccccc32)C2=C(C(=O)NC2=O)c2cn(c3ccccc23)CCO1 [Ruboxistaurin, ruboxistaurin, reference compound]
2 = O=C1NC(=O)c2c1c1c3ccccc3[nH]c1c1c2c2ccccc2n1CCN1CCOCC1
Asked: // which entry reports the smaller pIC50, 1 or 2 ? Pick one; state its label.
Given back: 1

---

target: PIM2 (Homo sapiens, UniProt Q9P1W9)
pKd: −log10 of the molar value.
parameter.measured: pKd

Example entries begin here.
- molecule: "O=C1NC(=O)c2c1c1c3ccc(O)cc3[nH]c1c1[nH]c3cc(O)ccc3c21"
  value.measured: 8.05
- molecule: "O=C1NC(=O)c2c1c1c3ccccc3[nH]c1c1[nH]c3ccccc3c21 [Arcyriaflavin A, reference compound]"
  value.measured: 7.72

A = O=C1NC(=O)c2c1c1c3ccc(F)cc3[nH]c1c1[nH]c3cc(F)ccc3c21
B = O=C1NC(=O)c2c1c1c([nH]c3cccc(F)c31)c1[nH]c3cccc(F)c3c21
Asked: Between these two entries, A and B , state which has the higher pKd. Respond using the label that marks the chosen record.
Given back: A

---

biological target: PIM1 (Homo sapiens, UniProt P11309); experiment: KINOMEscan competition binding assay (Kd); settings: competition binding, run in duplicate; read-out: Kd PIM1
parameter.measured: Kd (µM)

- molecule: "O=C1NC(=O)c2c1c1c3ccccc3[nH]c1c1[nH]c3ccccc3c21 [Arcyriaflavin A, reference compound]"
  Kd / µM: 0.021

A = O=C1NC(=O)c2c1c1c3ccc(F)cc3[nH]c1c1[nH]c3cc(F)ccc3c21
B = O=C1NC(=O)c2c1c1c3cccc(F)c3[nH]c1c1[nH]c3c(F)cccc3c21
Asked: Decide: A or B , by lowest recorded Kd. # respond with the chosen item's label
Given back: A

---

target: PIM1 (Homo sapiens); assay: KINOMEscan competition binding assay (Kd); details: competition binding, run in duplicate; read-out: Kd PIM1
parameter.measured: Kd (nM)

- compound: "O=C1NC(=O)c2c1c1c3ccc(O)cc3[nH]c1c1[nH]c3cc(O)ccc3c21 [Compound 122]"
  value.measured: 11

I = O=C1NC(=O)c2c1c1c3cccc(O)c3[nH]c1c1[nH]c3c(O)cccc3c21 [Compound 123]
II = O=C1NC(=O)c2c1c1c([nH]c3cccc(F)c31)c1[nH]c3cccc(F)c3c21 [Compound 128]
Asked: Identify the entry with the smaller Kd: I or II . Kindly give the label for the entry you pick.
Given back: I
(I: 130 nM, II: 280 nM)

---

target: PIM3 (Homo sapiens, UniProt Q86V86); test: KINOMEscan competition binding assay (Kd); settings: competition binding, run in duplicate; read-out: Kd PIM3
The entries below are paired with their reported Kd.

Sample answers from the record:
- smiles.data: "O=C1NC(=O)c2c1c1c3cc(F)ccc3[nH]c1c1[nH]c3ccc(F)cc3c21"
  Kd: "27 nM"
- smiles.data: "N#Cc1ccc2c(c1)[nH]c1c3[nH]c4cc(C#N)ccc4c3c3c(c21)C(=O)NC3=O"
  Kd: "> 10000 nM"

Query compound follows.
Asked: State Kd (PIM3 (Homo sapiens, UniProt Q86V86)) of O=C1NC(=O)c2c1c1c3cccc(Br)c3[nH]c1c1[nH]c3c(Br)cccc3c21 .
Given back: > 3000 nM

---

target: PIM3 (Homo sapiens, UniProt Q86V86); experiment: KINOMEscan competition binding assay (Kd); conditions: competition binding, run in duplicate; read-out: Kd PIM3
pKd: −log10 of the molar value.
parameter.measured: pKd

- smiles.data: "O=C1NC(=O)c2c1c1c3cc(Br)ccc3[nH]c1c1[nH]c3ccc(Br)cc3c21"
  measured.on: "PIM3 (Homo sapiens, UniProt Q86V86)"
  pKd: "< 5.00"
- smiles.data: "O=C1NC(=O)c2c1c1c3ccc(Br)cc3[nH]c1c1[nH]c3cc(Br)ccc3c21"
  measured.on: "PIM3 (Homo sapiens, UniProt Q86V86)"
  pKd: "< 5.00"

Asked: Return the recorded pKd value; entry: N#Cc1cccc2c1[nH]c1c3[nH]c4c(C#N)cccc4c3c3c(c21)C(=O)NC3=O
Given back: < 5.52

---

molecular target: UniProt:P11309; test: KINOMEscan competition binding assay (Kd); settings: competition binding, run in duplicate; read-out: Kd PIM1
Here the recorded Kd is given for each entry.

Previously resolved entries follow.
- molecule: "N#Cc1cccc2c1[nH]c1c3[nH]c4c(C#N)cccc4c3c3c(c21)C(=O)NC3=O [Compound 147]"
  Kd: "> 3 µM"
- molecule: "O=C1NC(=O)c2c1c1c3cc(Br)ccc3[nH]c1c1[nH]c3ccc(Br)cc3c21 [Compound 137]"
  Kd: "> 10 µM"
- molecule: "O=C1NC(=O)c2c1c1c3cccc(Br)c3[nH]c1c1[nH]c3c(Br)cccc3c21 [Compound 139]"
  Kd: "> 3 µM"

Kindly review the next molecule as well.
Asked: Please indicate Kd recorded for N#Cc1ccc2c(c1)[nH]c1c3[nH]c4cc(C#N)ccc4c3c3c(c21)C(=O)NC3=O [Compound 146]
Given back: > 10 µM

Data provenance: patent US11319320B2
